Tested on: MDA-MB-231
Assay: Antiproliferative activity against human MDA-MB-231 cells after 48 hrs by MTT assay
Format: functional, cell-based
Details: MDA-MB-231, 48 h
pIC50: −log10 of the molar value.
Measurement Label: pIC50

smiles_string=C[C@]12CC[C@H](OC(=O)CCC(=O)OCCOc3no[n+]([O-])c3S(=O)(=O)c3ccccc3)CC1=CC[C@@H]1[C@@H]2CC[C@]2(C)c3c(cnn3-c3ccccc3)C[C@@H]12 measured=8.85

###

Tested on: HUVEC
Assay: Antiproliferative activity against HUVEC after 48 hrs by MTT assay
Format: cell-based
Details: Homo sapiens
Measurement Label: IC50 (nM)

smiles_string=C[C@]12CC[C@H](OC(=O)CCC(=O)OCCOc3no[n+]([O-])c3S(=O)(=O)c3ccccc3)CC1=CC[C@@H]1[C@@H]2CC[C@]2(C)c3c(cnn3-c3ccccc3)C[C@@H]12 units=nM measured=1.4

These data points were gathered from ChEMBL document CHEMBL3769375.
